Study System: GRP78ATPase (ATPase domain of human GRP78, residues 26–407) (Homo sapiens, UniProt P11021)
Construct: GRP78ATPase (residues 26–407) was amplified from the full-length human GRP78; hexahistidine tag (pET28-MHL vector) (N); made in house; host or cells: E. coli BL-21(DE3)
Sequence (P11021 26-407): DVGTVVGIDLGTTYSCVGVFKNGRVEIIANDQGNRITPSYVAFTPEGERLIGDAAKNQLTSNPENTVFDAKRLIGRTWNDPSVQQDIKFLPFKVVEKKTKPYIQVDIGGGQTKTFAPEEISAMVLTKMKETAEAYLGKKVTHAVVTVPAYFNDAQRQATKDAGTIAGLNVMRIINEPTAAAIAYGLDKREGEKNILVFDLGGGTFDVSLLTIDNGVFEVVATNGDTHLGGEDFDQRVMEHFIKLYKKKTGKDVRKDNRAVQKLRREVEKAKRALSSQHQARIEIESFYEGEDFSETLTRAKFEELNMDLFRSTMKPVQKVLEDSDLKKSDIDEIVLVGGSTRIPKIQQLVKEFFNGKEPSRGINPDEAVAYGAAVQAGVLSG
Test Summary: Surface plasmon resonance (SPR) binding of nucleotides to immobilized GRP78ATPase
Run Parameters: SPR running buffer with 5 mM EDTA (Mg++ removed); 25 °C; mean ± SD, n = 3
Measured Property: Kd (µM)

{"Molecule": "Nc1ncnc2c1ncn2[C@@H]1O[C@H](COP(=O)(O)OP(=O)(O)OP(=O)(O)O)[C@@H](O)[C@H]1O", "Relational Operator": "=", "Quantitative Result": 9.8}
{"Molecule": "Nc1ncnc2c1ncn2[C@@H]1O[C@H](COP(=O)(O)OP(=O)(O)CP(=O)(O)O)[C@@H](O)[C@H]1O", "Relational Operator": ">", "Quantitative Result": 1000}
{"Molecule": "Nc1ncnc2c1ncn2[C@H]1C[C@H](O)[C@@H](COP(=O)(O)OP(=O)(O)OP(=O)(O)O)O1", "Relational Operator": ">", "Quantitative Result": 1000}
{"Molecule": "Nc1ncnc2c1ccn2C1OC(COP(=O)(O)OP(=O)(O)OP(=O)(O)O)C(O)C1O (stereo not shown)", "Relational Operator": "=", "Quantitative Result": 0.9}
